Values were extracted from paper PMC8000041.

assay: Plasma metabolites and pharmacokinetics after single intake of lemon or orange extract (UPLC-ESI-QTOF-MS, non-compartmental analysis); type: in vivo, human; conditions: after consuming orange extract, n = 16 volunteers
Form field: Occurrence Plasma OE (number of volunteers in whom the metabolite was detected) (one value per entry).
Provide a numeric answer; units are not to be included.

Consider the following illustrative entries.
Q) Recorded Occurrence Plasma OE (number of volunteers in whom the metabolite was detected) for COc1ccc([C@@H]2CC(=O)c3c(O)cc(O)cc3O2)cc1O [M17, Hesperetin] , please?
A) 3

Q) Request: O=C1C[C@@H](c2ccc(O)c(O)c2)Oc2cc(O)cc(O)c21 [M12, Eriodictyol]
A) 0

Q) Request: O=C1CC(c2ccc(O)cc2)Oc2cc(OC3OC(C(=O)O)C(O)C(O)C3O)cc(O)c21 (stereo not shown) [M3, Naringenin 7-O-glucuronide]
A) 14

Now consider a different compound.
Q) Recorded Occurrence Plasma OE (number of volunteers in whom the metabolite was detected) for COc1ccc(C2CC(=O)c3c(O)cc(O)cc3O2)cc1OS(=O)(=O)O (stereo not shown) [M14, Hesperetin 3′-O-sulfate] , please?
A) 16
